We begin with a simple list: items and their reported IC50.
# System: L-540;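 also: growth inhibition of the human L-540 cell line, read out with a viability assay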
# Method Notes: cells
# Type: functional, cell-based, Homo sapiens
# Test Context: Homo sapiens, L-540
# Description: SANGER: Inhibition of human L-540 cell growth in a cell viability assay.

INSERT INTO assay_data (compound, experimental_readout, experimental_result) VALUES
  ('OC[C@H](Cc1ccccc1)Nc1nc(Oc2ccc3c(c2)CCC3)nc2c1ncn2Cc1ccc(-c2ccccc2)cc1', 'IC50', '> 10200 nM'),
  ('C[C@@H](Oc1cc(-c2cnn(C3CCNCC3)c2)cnc1N)c1c(Cl)ccc(F)c1Cl [CRIZOTINIB]', 'IC50', '> 2000 nM'),
  ('Nc1ccccc1NC(=O)c1ccc(CNC(=O)OCc2cccnc2)cc1 [ENTINOSTAT]', 'IC50', '1110 nM'),
  ('COc1ccc(-c2cc3nccn3c(Nc3ncccc3C(N)=O)n2)cc1OC', 'IC50', '> 8000 nM');

Ask: Request the reported IC50 associated with Cc1ccc(C(=O)Nc2ccc(CN3CCN(C)CC3)c(C(F)(F)F)c2)cc1C#Cc1cnc2cccnn12 [PONATINIB]
Reply: > 512 nM

====

Measured pIC50 by item
# System: Raji;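 also: cell viability assay measuring inhibition of Raji cell growth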
# Method Notes: cells
# Type: functional, cell-based, Homo sapiens
# Test Context: Homo sapiens, Raji
# Description: SANGER: Inhibition of human Raji cell growth in a cell viability assay.
pIC50: −log10 of the molar value. Where a SMILES comes first, the peptide text is derived from it. The star is where a group is joined. Cbz = O=C(OCc1ccccc1)*

Past entries and their recorded results:
INSERT INTO measurements (compound, experimental_readout, experimental_result) VALUES
  ('NC(=O)c1cccc(-c2cc(Nc3ccc(OC(F)(F)F)cc3)ncn2)c1', 'pIC50', '< 5.89'),
  ('C[C@@H](Oc1cc(-c2cnn(C3CCNCC3)c2)cnc1N)c1c(Cl)ccc(F)c1Cl', 'pIC50', '< 5.70');

Ask: Need pIC50, item Cc1ccc(NC(=O)c2ccc(CN3CCN(C)CC3)cc2)cc1Nc1nccc(-c2cccnc2)n1
Reply: < 5.70

Ask: Now the compound CC(C)C[C@@H](C=O)NC(=O)[C@H](CC(C)C)NC(=O)[C@H](CC(C)C)NC(=O)OCc1ccccc1 [MG-132] (Cbz-Leu-Leu-Leu-aldehyde)
Reply: < 6.00

Ask: Now the compound C/C(=C\c1csc(C)n1)[C@@H]1C[C@@H]2O[C@]2(C)CCC[C@H](C)[C@H](O)[C@@H](C)C(=O)C(C)(C)[C@@H](O)CC(=O)O1
Reply: < 7.49

Ask: How about O=S(=O)(O)c1ccc2cc(/N=N/c3cc(S(=O)(=O)O)c4cccnc4c3O)ccc2c1 ?
Reply: < 4.80

====

# Test system: KE-37;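 also: growth inhibition of KE-37 cells, read out with a cell viability assay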
# Method Notes: cells
# Type: functional, cell-based, Homo sapiens
# Test Context: Homo sapiens, KE-37
# Description: SANGER: Inhibition of human KE-37 cell growth in a cell viability assay.
pIC50: −log10 of the molar value.
Experimental Readout: pIC50

INSERT INTO measurements (sample_smiles, target_under_test, experimental_readout, experimental_result) VALUES
  ('COc1cc(N2CCC(N3CCN(C)CC3)CC2)ccc1Nc1ncc(Cl)c(Nc2ccccc2S(=O)(=O)C(C)C)n1', 'KE-37', 'pIC50', '< 5.70'),
  ('C[C@@H](Oc1cc(-c2cnn(C3CCNCC3)c2)cnc1N)c1c(Cl)ccc(F)c1Cl', 'KE-37', 'pIC50', '< 5.70'),
  ('NC(=O)c1cccc(-c2cc(Nc3ccc(OC(F)(F)F)cc3)ncn2)c1', 'KE-37', 'pIC50', '< 5.89'),
  ('O=C(NCCCNc1nc(Nc2cccc(NC(=O)N3CCCC3)c2)ncc1I)c1cccs1', 'KE-37', 'pIC50', 5.51),
  ('O=S(=O)(O)c1ccc2cc(/N=N/c3cc(S(=O)(=O)O)c4cccnc4c3O)ccc2c1', 'KE-37', 'pIC50', '< 4.80');

Ask: Provide value of pIC50 for this record tested with KE-37: Cc1ccc(C(=O)Nc2ccc(CN3CCN(C)CC3)c(C(F)(F)F)c2)cc1C#Cc1cnc2cccnn12
Reply: < 6.29

====

# System: KMOE-2
# Method Notes: cells
# Assay type: functional, cell-based, Homo sapiens
# Test Context: Homo sapiens, KMOE-2
# Description: SANGER: Inhibition of human KMOE-2 cell growth in a cell viability assay.
pIC50: −log10 of the molar value. Where a SMILES comes first, the peptide text is derived from it. The star is where a group is joined. Cbz = O=C(OCc1ccccc1)*
Experimental Readout: pIC50

Solved entries:
INSERT INTO measurements (molecule, experimental_readout, experimental_result) VALUES
  ('NC(=O)Nc1cc(-c2cccc(F)c2)sc1C(=O)N[C@H]1CCCNC1 [AZD-7762]', 'pIC50', 5.95),
  ('NC(=O)c1ccc(N(C(N)=O)c2c(F)cccc2F)nc1-c1ccc(F)cc1F [VX-702]', 'pIC50', '< 5.70'),
  ('Cc1ccc(NC(=O)c2ccc(CN3CCN(C)CC3)cc2)cc1Nc1nccc(-c2cccnc2)n1 [IMATINIB]', 'pIC50', '< 5.70'),
  ('COc1ccc(N(C(=O)Oc2c(C)cccc2C)c2ccnc(Nc3ccc(N4CCN(C)CC4)cc3)n2)c(OC)c1', 'pIC50', '< 5.29'),
  ('CC(C)C[C@@H](C=O)NC(=O)[C@H](CC(C)C)NC(=O)[C@H](CC(C)C)NC(=O)OCc1ccccc1 [MG-132] (Cbz-Leu-Leu-Leu-aldehyde)', 'pIC50', '< 6.00'),
  ('Cc1ccc(C(=O)Nc2ccc(CN3CCN(C)CC3)c(C(F)(F)F)c2)cc1C#Cc1cnc2cccnn12 [PONATINIB]', 'pIC50', '< 6.29');

Ask: Look up pIC50 for this molecule: CN(NC(=O)CC(=O)NN(C)C(=S)c1ccccc1)C(=S)c1ccccc1 [ELESCLOMOL]
Reply: 6.84

Ask: Also check Cc1cc(N2CCOCC2)cc2[nH]c(-c3c(NC[C@@H](O)c4cccc(Cl)c4)cc[nH]c3=O)nc12
Reply: < 5.29

Ask: Could you do the same for Nc1ccccc1NC(=O)c1ccc(CNC(=O)OCc2cccnc2)cc1 [ENTINOSTAT] , please?
Reply: 5.54

Ask: Also COC(=O)[C@H](CCSC)NC(=O)c1ccc(NC[C@@H](N)CS)cc1-c1ccccc1 , if possible.
Reply: < 5.99

====

# Test system: RL
# Method Notes: cells
# Type: functional, cell-based, Homo sapiens
# Test Context: Homo sapiens, RL
# Description: SANGER: Inhibition of human RL cell growth in a cell viability assay.
Experimental Readout: IC50

INSERT INTO measurements (sample_smiles, experimental_result) VALUES
  ('Cc1ccc(NC(=O)c2ccc(CN3CCN(C)CC3)cc2)cc1Nc1nccc(-c2cccnc2)n1', '> 2000 nM'),
  ('O=S(=O)(O)c1ccc2cc(/N=N/c3cc(S(=O)(=O)O)c4cccnc4c3O)ccc2c1', '> 16000 nM'),
  ('CC(C)C[C@H](NC(=O)[C@H](Cc1ccccc1)NC(=O)c1cnccn1)B(O)O', '> 20 nM');

Ask: Which IC50 is reported for this compound? Cc1ccc(C(=O)Nc2ccc(CN3CCN(C)CC3)c(C(F)(F)F)c2)cc1C#Cc1cnc2cccnn12
Reply: > 512 nM

====

# Test system: ES7;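 also: growth inhibition of cultured human ES7 cells, read out as cell viability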
# Method Notes: cells
# Type: functional, cell-based, Homo sapiens
# Test Context: Homo sapiens, ES7
# Description: SANGER: Inhibition of human ES7 cell growth in a cell viability assay.
# pIC50 values compiled below
Just the number, please; pIC50 means minus log10 of the concentration in mol/L.

Here is how some compounds turned out for pIC50.
INSERT INTO measurements (sample_smiles, target_under_test, experimental_result) VALUES
  ('CN(NC(=O)CC(=O)NN(C)C(=S)c1ccccc1)C(=S)c1ccccc1', 'ES7', 8.44),
  ('C/C(=C\c1csc(C)n1)[C@@H]1C[C@@H]2O[C@]2(C)CCC[C@H](C)[C@H](O)[C@@H](C)C(=O)C(C)(C)[C@@H](O)CC(=O)O1', 'ES7', 8.23),
  ('O=C(NCCCNc1nc(Nc2cccc(NC(=O)N3CCCC3)c2)ncc1I)c1cccs1', 'ES7', 6.08),
  ('CCCCCCCCCCCC1=C(O)C(=O)C=C(O)C1=O', 'ES7', 5.18);

Ask: So what does the record say about pIC50 for CS(=O)(=O)N1CCN(Cc2cc3nc(-c4cccc5[nH]ncc45)nc(N4CCOCC4)c3s2)CC1 ?
Reply: 6.47

====

# Tested on: NCI-H520;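 also: growth inhibition of NCI-H520 cells, measured by a cell viability assay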
# Method Notes: cells
# Type: functional, cell-based
# Test Context: Homo sapiens
# Description: SANGER: Inhibition of human NCI-H520 cell growth in a cell viability assay.
compounds and their reported IC50

Worked cases, answers included:
INSERT INTO assay_data (sample_smiles, experimental_result) VALUES
  ('COc1ccc(-c2cc3nccn3c(Nc3ncccc3C(N)=O)n2)cc1OC', '> 8000 nM'),
  ('C/C(=C\c1csc(C)n1)[C@@H]1C[C@@H]2O[C@]2(C)CCC[C@H](C)[C@H](O)[C@@H](C)C(=O)C(C)(C)[C@@H](O)CC(=O)O1', '2.95 nM'),
  ('CN(C)CCOc1ccc(-c2nc(-c3ccncc3)c(-c3ccc4c(c3)CC/C4=N\O)[nH]2)cc1', '> 5000 nM');

Please find the next compound below.
Ask: Name the recorded IC50 for CC1(C)CCC(c2ccc(Cl)cc2)=C(CN2CCN(c3ccc(C(=O)NS(=O)(=O)c4ccc(N[C@H](CCN5CCOCC5)CSc5ccccc5)c(S(=O)(=O)C(F)(F)F)c4)cc3)CC2)C1 .
Reply: > 2000 nM
